# EXPERIMENTAL_SYSTEM: Gal(b1-4)GlcNAc(b1-3)Gal(b1-4)GlcNAc(b1-3)Gal(b1-4)GlcNAc(b1-3)Gal(b1-4)GlcNAc(b1-3)Gal(b1-4)GlcNAc(b1-2)Man(a1-3)[Gal(b1-4)GlcNAc(b1-3)Gal(b1-4)GlcNAc(b1-3)Gal(b1-4)GlcNAc(b1-3)Gal(b1-4)GlcNAc(b1-3)Gal(b1-4)GlcNAc(b1-2)Man(a1-6)]Man(b1-4)GlcNAc(b1-4)[Fuc(a1-6)]GlcNAc
# PROTOCOL_NOTES: glycan array binding signal (z-score within array); higher = stronger binding
# EXPERIMENTAL_CONDITIONS: glycan notation: IUPAC condensed, linker removed
The sample as a whole holds a higher share of the strongest signals than the screen did.
REPORTED_ENDPOINT: glycan array binding signal (z-score)
// keep it numeric: no unit symbol after the value

BINDER | glycan array binding signal (z-score)
Loc1 (Escherichia coli) (protein) APCALTNVGEQRGTYILKPLSMKGNLTAEKIENTGNIIECTDLQETTNAIKVHFLTQNALKFKVGSRHYIINFPFEYDGKKIELPGKSSYNLEEMLSAINFTIPYSIASVSDSSNTADIFPGTPFPLLFEIEVSSCTGNNTNCNSVRFNYNLNTILQVNLMTHHHHHH | 1.98
AFL5 (Aspergillus fumigatus), Q4WB00 (protein) MDNFMEMTKKLGHQPELLRLRALDATYDDALEGKLVVAPLDMSEPGKKILDSGTADGTWLRNVRSKQSVPHDYYGSDVEGELFPKDPDGITYFAHSFKDPWPQQYLGFFDLVHIRGSLAGSAPEGPAPVIQNLTTLLKPGGWVQLMEMNAFSPPPNGPAMTDFAKMASEMFTGIGVGDFANNNKSMLEDAGLKNVQEKRVIVNLGKKAKPELHDQSIHGVTGPIVPLTSVARTVKSSFTGEQLDALPARVKEELETEGGQVEMIIAFGQKA | 1.46
HA-61200 (Pseudomonas aeruginosa), Q02SP8_PSEAB (protein) MNKCYALVWNVSQGCWNVVSEGSRRRGKPAGAKAAIASVLALLGATALAPAYALPSGGTVVGGSANGEIHLSGGNSLSVNQKVDKLIANWDSFSVAAGERVIFNQPSSSSIALNRVIGTKASDIQGRIDANGQVFLVNPNGVLFGRGAQVNVGGLVASTLDITDAEFNGNSSRYRFTGPSTNGVLNHGGAITAAEGGSIALLGAQVDNRGTVLAQMGGVGLGAGSDLTLNFDGNKLLDIRVDAGVANALASNGGLLKADGGRVLMAARTANALLNTVVNSQGAIEARSLRGKNGRIVLDG | 2.6
Pbx1CASH domain (Cryptococcus neoformans) (protein) MDETKPLWGNPRADGISLACKDSIVERNVVYDATDGAIVLFGSAGSTVKNNHVYARTRVILGGINLVDYEPWDGDYTNVKVHHNHLYALGRYFKVGIVIGPASWSDDTESVVHSASVTDNEFSGGYWGYGIVVASAKNFEVLRNKVIWDGEQGVARFSGVPGS | -0.419
BC2LB (Burholderia cenocepacia), B4EH85_BURCJ (protein) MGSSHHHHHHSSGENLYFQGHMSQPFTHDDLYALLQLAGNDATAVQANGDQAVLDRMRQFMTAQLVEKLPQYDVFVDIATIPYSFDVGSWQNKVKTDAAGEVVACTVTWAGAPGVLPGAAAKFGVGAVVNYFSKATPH | 0.012

# evaluate next
// query Value lookup for glycan array binding signal (z-score); key = Pwp1 (Candida glabrata) (protein) MGSSHHHHHHSSGLVPRGSHMASANPISITNVCQFPDNWARTAGFQATTVRLGLTIASNTYKELLNYPGLFNFATQKATVTQPNFSISGFPFFTGLYGLTVWPINLLVELQGYFVPPESGNYTFTLQGSDDAAILFFANPSTFACGSQNDWPQPREADITVTDTLVPSRTLYLVKGVAYPIRIAYYNGSGDGKLNVSFKDPSGTTHTDWKGYVWQYSNTCSTCTYT
// result -0.637
